Experimental Details: Antibacterial activity against carbapenem-resistant Klebsiella pneumoniae K6 ATCC 700603 by two fold serial dilution method
Assay type: functional, Klebsiella pneumoniae 700603
Non-standard residues stand in square brackets, D forms with d. Residues, ends and D or L forms follow the SMILES beside them. ξ: configuration not given here. Ac6c = NC1(C(=O)O)CCCCC1; ξDab = NCCC(N)C(=O)O; ξDap = NCC(N)C(=O)O
Endpoint Label: MIC (µM)

Compound	Scale Unit	Measured Number
CC(=O)NCC(=O)N[C@@H](Cc1ccccc1)C(=O)NC1(C(=O)NCC(=O)NC2(C(=O)NC(CN)C(=O)NC3(C(=O)NCC(=O)NC4(C(=O)N[C@@H](Cc5ccccc5)C(=O)NC5(C(=O)NCC(=O)NC6(C(=O)NCC(=O)NC(CN)C(=O)NC7(C(=O)NC(CN)C(=O)NC(CN)C(=O)NC(CN)C(=O)NC(CN)C(N)=O)CCCCC7)CCCCC6)CCCCC5)CCCCC4)CCCCC3)CCCCC2)CCCCC1 (some centres not stated) (Ac-GF[Ac6c]G[Ac6c][ξDap][Ac6c]G[Ac6c]F[Ac6c]G[Ac6c]G[ξDap][Ac6c][ξDap][ξDap][ξDap][ξDap]-NH2)	µM	3.08
CC(=O)NCC(=O)N[C@@H](Cc1ccccc1)C(=O)NC1(C(=O)NCC(=O)NC2(C(=O)NC(CCN)C(=O)NC3(C(=O)NCC(=O)NC4(C(=O)N[C@@H](Cc5ccccc5)C(=O)NC5(C(=O)NCC(=O)NC6(C(=O)NCC(=O)NC(CCN)C(=O)NC7(C(=O)NC(CCN)C(=O)NC(CCN)C(=O)NC(CCN)C(=O)NC(CCN)C(N)=O)CCCCC7)CCCCC6)CCCCC5)CCCCC4)CCCCC3)CCCCC2)CCCCC1 (some centres not stated) (Ac-GF[Ac6c]G[Ac6c][ξDab][Ac6c]G[Ac6c]F[Ac6c]G[Ac6c]G[ξDab][Ac6c][ξDab][ξDab][ξDab][ξDab]-NH2)	µM	2.96
